# SUBJECT_OF_TEST: 11β-HSD1 (Rattus norvegicus)
# Construct: endogenous in cells; host or cells: primary rat adult Leydig cells (ALCs) from 90-day-old rat testes
# ASSAY_SUMMARY: 11β-HSD1 reductase assay in ALC microsomes
# Format: biochemical
# STUDY_CONDITIONS: ALC microsomes, 25 nM DHC plus 0.2 mM NADPH; Mean ± SEM (n = 4); read-out: EC50 for stimulation of 11β-HSD1 reductase, microsome
QUANTITY_MEASURED: pEC50
// pEC50 here means minus log10 of the molar concentration (mol/L)

# get_value(readout='pEC50', item= C[C@]12CC[C@H](O)CC1=C[C@@H](O)[C@@H]1[C@@H]2CC[C@]2(C)C(=O)CC[C@@H]12 [7αOHD, 7α-hydroxydehydroepiandrosterone] )
6.70

---

# SUBJECT_OF_TEST: 11β-HSD1 (Rattus norvegicus, UniProt P16232)
# Construct: endogenous in cells; host or cells: primary rat adult Leydig cells (ALCs) from 90-day-old rat testes
# Sequence (P16232 whole entry): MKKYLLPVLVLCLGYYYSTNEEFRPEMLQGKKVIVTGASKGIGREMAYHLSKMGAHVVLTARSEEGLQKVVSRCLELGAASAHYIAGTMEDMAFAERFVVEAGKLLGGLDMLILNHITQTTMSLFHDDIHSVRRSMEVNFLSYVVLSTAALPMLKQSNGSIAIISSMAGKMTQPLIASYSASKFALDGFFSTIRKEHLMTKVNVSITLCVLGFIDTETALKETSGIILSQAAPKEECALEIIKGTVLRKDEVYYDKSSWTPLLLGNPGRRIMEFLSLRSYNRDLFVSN
# ASSAY_SUMMARY: 11β-HSD1 oxidase assay in intact ALCs (CORT to DHC)
# Format: cell-based
# STUDY_CONDITIONS: intact ALCs, 25 nM CORT, 0.5 h; Mean ± SEM (n = 4); read-out: IC50 for inhibition of 11β-HSD1 oxidase, intact Leydig cells
QUANTITY_MEASURED: IC50 (nM)
Express it in nM; write the number only.

Looking for the measured IC50 of C[C@]12CC[C@H](O)CC1=C[C@@H](O)[C@@H]1[C@@H]2CC[C@]2(C)C(=O)CC[C@@H]12 [7αOHD, 7α-hydroxydehydroepiandrosterone] , can you help?
1180

---

# SUBJECT_OF_TEST: 11β-HSD1 (Rattus norvegicus, UniProt P16232)
# Construct: endogenous in cells; host or cells: primary rat adult Leydig cells (ALCs) from 90-day-old rat testes
# ASSAY_SUMMARY: 11β-HSD1 oxidase assay in ALC microsomes
# Type: biochemical
# STUDY_CONDITIONS: ALC microsomes, 25 nM CORT plus 0.2 mM NADP+; read-out: IC50 for inhibiting 11β-HSD1 oxidase activity in ALC microsomes
QUANTITY_MEASURED: IC50

Entry C[C@]12CC[C@H](O)CC1=C[C@@H](O)[C@@H]1[C@@H]2CC[C@]2(C)C(=O)CC[C@@H]12 [7αOHD, 7α-hydroxydehydroepiandrosterone] : reported IC50 = ?
0.93 µM
